Source of measurements: ChEMBL document CHEMBL3612038

System: Candida albicans
MEASUREMENT PROTOCOL: Antifungal activity against Candida albicans incubated for 48 hrs by broth micro-dilution method
Format: functional
ASSAY METRIC: MIC

Worked cases, answers included:
{"COMPOUND": "O=C(CCN1CCN(C(=S)NC2CCCCC2)CC1)c1ccccc1", "TESTED ON": "Candida albicans", "MIC": "34.7 µM"}
{"COMPOUND": "OC(CCN1CCN(C(=S)NCc2ccccc2)CC1)c1ccccc1 (configuration not stated)", "TESTED ON": "Candida albicans", "MIC": "> 81.2 µM"}
{"COMPOUND": "O=C(CCN1CCN(C(=S)Nc2ccccc2)CC1)c1ccccc1", "TESTED ON": "Candida albicans", "MIC": "> 81.2 µM"}

Task: Which MIC value is on record for FC(F)(F)c1ccc(OC(CCN2CCN(C(=S)NC3CCCCC3)CC2)c2ccccc2)cc1 (configuration not stated) ?
Result: > 81.2 µM

Task: Given the entry OC(Cn1cncn1)(Cn1cncn1)c1ccc(F)cc1F [FLUCONAZOLE] , report its measured MIC.
Result: 3.26 µM

Task: # input compound: O=C(CCN1CCN(C(=S)NCc2ccccc2)CC1)c1ccccc1 ; wanted: its MIC
Result: 67.9 µM

Task: Value lookup for MIC; key = OC(CCN1CCN(C(=S)Nc2ccccc2)CC1)c1ccccc1 (configuration not stated)
Result: > 81.2 µM

Task: Item under review: OC(CCN1CCN(C(=S)NCCc2ccccc2)CC1)c1ccccc1 (configuration not stated) . Reported MIC?
Result: > 81.2 µM

Task: Could you share which MIC value was measured for CCCCNC(=S)N1CCN(CCC(Oc2ccc(C(F)(F)F)cc2)c2ccccc2)CC1 (configuration not stated) ?
Result: > 81.2 µM
